Tested on: SK-MEL-5 melanoma
TEST NAME: NCI-60 one-dose screen, 48 h (100 = growth as untreated, 0 = no growth, -100 = all killed)
CONDITION: 10 µM unless noted
This is part of a sample that, as a whole, favours compounds with a hit. Of some 83,000 tested, about 20% had one in any assay.
MEASURED PROPERTY: growth (%)
Supply the numeric figure in %, leaving out any unit text.

Request: Enter reported growth observed with SK-MEL-5 melanoma for "CCCCC[C@H](O)C/C=C1/C(=O)C=C[C@@H]1C/C=C\CCCC(=O)OC"
Response: 38

Request: Enter reported growth observed with SK-MEL-5 melanoma for "Brc1c[n+](Cc2ccc3ccccc3c2)cn1Cc1ccc2ccccc2c1"
Response: -85.2

Request: Enter reported growth observed with SK-MEL-5 melanoma for CCOC(=O)C1=C(N)Oc2c(sc3c(C)cccc23)C1c1ccc(OC)cc1 (configuration not stated)
Response: 52.5

Request: Enter reported growth observed with SK-MEL-5 melanoma for O=C1c2ccccc2NC(n2sc3ccccc3c2=O)N1c1ccccc1 (configuration not stated)
Response: 105

Request: Enter reported growth observed with SK-MEL-5 melanoma for "COc1ccc(NC2=C(Br)C(=O)C(C)=C(C)C2=O)cc1"
Response: 92.3

Request: Enter reported growth observed with SK-MEL-5 melanoma for "Cc1nc(/N=C(\N)NC(=O)Nc2ccccc2Cl)sc1C"
Response: 32.6

Request: Enter reported growth observed with SK-MEL-5 melanoma for "CC(=O)c1ccc(Nc2nc(C(C)=O)c(C)s2)cc1"
Response: 99.9

* * *

Tested on: U251 CNS
TEST NAME: NCI-60 one-dose screen, 48 h (100 = growth as untreated, 0 = no growth, -100 = all killed)
CONDITION: 10 µM unless noted
The panel holds about 83,000 compounds, 20% with a hit somewhere; the sample as a whole holds those more often.
MEASURED PROPERTY: growth (%)
Supply the numeric figure in %, leaving out any unit text.

Request: I'd like to know its growth. The compound in question is "Cc1nc2ccccc2n1CC1C(=O)NC(=O)NC1=O"
Response: 99.4

Request: I'd like to know its growth. The compound in question is O=C1CCC(C(=O)NCCNCCNC(=O)C2CCC(=O)N2)N1 (stereo not drawn)
Response: 97.7

Request: I'd like to know its growth. The compound in question is COc1ccc(S(=O)(=O)n2cc(C3OC(c4cc(OC)c(OC)c(OC)c4)=NN3C(C)=O)c3ccccc32)cc1OC (stereo not drawn)
Response: 97.7

Request: I'd like to know its growth. The compound in question is "COc1cccc2c(=O)c3c(sc12)c(NCCCN)nc1ccccc13"
Response: 39.5

Request: I'd like to know its growth. The compound in question is "Cc1ccc(/C=N\NC(=O)c2[nH]c3ccc(F)cc3c2-c2ccccc2)cc1"
Response: 12.4

Request: I'd like to know its growth. The compound in question is "S=c1nc(-c2ccccc2)oc(=NC2CCCCC2)n1C1CCCCC1"
Response: 18.8

Request: I'd like to know its growth. The compound in question is "Cc1oc2nc[nH]c(=O)c2c1C(=O)/C=C/c1ccc(Br)cc1"
Response: 12

Request: I'd like to know its growth. The compound in question is "Cc1nc(S(=O)(=O)c2ccccc2)c(S(=O)(=O)Cc2ccc([N+](=O)[O-])cc2)o1"
Response: 98.8
